- systemUnderTest: ACE-2 (Homo sapiens)
- Construct: a stop codon inserted after the serine immediately preceding the transmembrane domain; made in house; host or cells: CHO K1 cells (transient transfection, purified from conditioned medium)
- Sequence (Q9BYF1 18-740 limits assumed): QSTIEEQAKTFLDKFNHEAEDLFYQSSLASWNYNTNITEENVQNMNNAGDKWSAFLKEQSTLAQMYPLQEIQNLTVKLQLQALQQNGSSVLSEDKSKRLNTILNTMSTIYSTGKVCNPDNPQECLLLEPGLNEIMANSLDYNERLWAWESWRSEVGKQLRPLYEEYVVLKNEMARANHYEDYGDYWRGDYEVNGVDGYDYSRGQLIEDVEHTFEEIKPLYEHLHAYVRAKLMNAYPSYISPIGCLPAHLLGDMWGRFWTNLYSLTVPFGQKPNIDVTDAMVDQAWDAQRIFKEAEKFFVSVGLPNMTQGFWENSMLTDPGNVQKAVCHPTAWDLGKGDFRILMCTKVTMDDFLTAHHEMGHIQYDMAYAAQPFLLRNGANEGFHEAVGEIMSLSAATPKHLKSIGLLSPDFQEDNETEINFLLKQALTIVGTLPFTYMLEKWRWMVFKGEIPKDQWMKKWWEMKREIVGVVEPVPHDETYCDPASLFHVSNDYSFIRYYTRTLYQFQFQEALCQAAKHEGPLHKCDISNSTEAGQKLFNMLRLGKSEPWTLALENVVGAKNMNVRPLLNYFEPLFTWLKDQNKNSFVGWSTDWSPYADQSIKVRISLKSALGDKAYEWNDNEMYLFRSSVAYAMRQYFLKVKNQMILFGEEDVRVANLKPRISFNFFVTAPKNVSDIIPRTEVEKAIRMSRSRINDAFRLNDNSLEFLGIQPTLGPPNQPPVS
- test: ACE-2 Competitive Substrate Assay (ACS Assay)
- Type: biochemical
- setupConditions: Ki class; compounds tested in 5% DMSO, 12 compound concentrations, Ki=Kiapp/(1+[S]/Km); read-out: Human ACE-2 Activity
pKi: −log10 of the molar value.
Recorded pKi by entry
parameter: pKi

> print(dat)
                                    compound  reportedresult
 1  Cc1cc(C)cc(Cn2cncc2C[C@H](NC(CC(C)C)C(=O)O)C(=O)O)c1 (single isomer, unassigned) [HR]          < 6.30
 2  CC(C)C[C@H](N[C@@H](Cc1cncn1Cc1cc(Cl)cc(Cl)c1)C(=O)OCc1ccccc1)C(=O)O (single isomer, unassigned) [LC]          > 7.00
 3  COc1cccc(Cn2cncc2C[C@H](NC(CC(C)C)C(=O)O)C(=O)O)c1OC (single isomer, unassigned) [IP]          < 6.30
 4  CC(C)CC(N[C@@H](Cc1cncn1Cc1cc(Cl)cc(Cl)c1)C(=O)O)C(=O)O (single isomer, unassigned) [HF]    6.30 to 7.00
 5  Cc1cc(C)cc(COc2ccc(C[C@H](N[C@@H](CC(C)C)C(=O)O)C(=O)O)cc2)c1    6.30 to 7.00
 6  COc1ccc2nc(NC(=O)C[C@H](N[C@@H](CC(C)C)C(=O)O)C(=O)O)sc2c1    6.30 to 7.00
 7  CC(C)C[C@H](N[C@@H](Cn1ccn(Cc2cc(Cl)cc(Cl)c2)c1=O)C(=O)O)C(=O)O          > 7.00
 8  CC(C)C[C@H](N[C@@H](Cn1ccn(CCC2CCCCC2)c1=O)C(=O)O)C(=O)O    6.30 to 7.00
 9  CC(C)C[C@H](N[C@@H](Cc1cccc(OCc2ccccc2Cl)c1)C(=O)O)C(=O)O          < 6.30
10  CC(C)C[C@H](N[C@@H](Cc1ccc(OCc2cccnc2)cc1)C(=O)O)C(=O)O    6.30 to 7.00
11  CC(C)CC(N[C@@H](Cc1cncn1Cc1cccc(C(F)(F)F)c1)C(=O)O)C(=O)O (single isomer, unassigned) [IZ]          > 7.00
12  CCCCOC(=O)[C@H](Cc1cncn1Cc1cc(Cl)cc(Cl)c1)N[C@H](CC(C)C)C(=O)O          < 6.30
13  CC(C)C[C@H](N[C@@H](Cn1ccn(Cc2ccccc2)c1=O)C(=O)O)C(=O)O    6.30 to 7.00
14  CC(C)CC(N[C@@H](Cc1cncn1Cc1cccc(Cl)c1)C(=O)O)C(=O)O (single isomer, unassigned) [HC]          > 7.00
15  CC(C)C[C@H](N[C@@H](Cc1ccc(-c2cccc3ccccc23)o1)C(=O)O)C(=O)O    6.30 to 7.00
16  Cc1cc(C)cc(Cn2cncc2C[C@H](NC(CC(C)C)C(=O)O)C(=O)O)c1 (single isomer, unassigned) [HQ]          > 7.00
